# run.description: yeast growth modulation, basal conditions, primary screen, YJM789 clinical isolate, OD600, 24 h (AID 1089);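 note: growth of clinical yeast isolate S. cerevisiae YJM 789 seeded 1000 cells per well; test concentration not given here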
# test.settings: S. cerevisiae YJM789 growth, higher = more signal, called active from +8 up or from −8 down
z-score for assorted molecules
Give the figure only, with no unit attached.

Look over these answered cases.
{"columns": ["molecule", "z-score"],
 "data": [
  ["COC(=O)C=CCCc1coc(C=CCNC(=O)OC)n1", 0.339],
  ["CC(C)=CCCC(C)=CCON=C1C[C@@H](O)[C@@H](O)[C@@H]2[C@@H]3C(=O)N(Cc4ccccc4)C(=O)[C@@H]3CC[C@H]12", -0.574],
  ["CC(CCN1CCCCc2nc(C)c(C)cc21)=NOC[C@@H](C)[C@H](OCc1ccccc1)C(C)C", -2.75],
  ["CCOC(=O)[C@H](CC(C)C)NC(=O)CCC1CC(OC(=O)NCc2cccc3ccccc23)CC2(CCCC(COC(=O)NCc3ccncc3)O2)O1 (some centres not stated)", 0.649],
  ["COC(=O)NCC=Cc1nc(CCCO)co1", 0.084],
  ["CC(C)=NO[C@H](C)c1cn([C@H](CO)Cc2ccccc2)nn1", -0.43],
  ["CCc1cc2c(nc1CC)CCN(CCC(C)=NO[C@H](C)c1cn([C@H](CO)Cc3ccccc3)nn1)C2", -0.563],
  ["CC(CCN1CCCCc2nc(C)c(C)cc21)=NOC[C@@H](O)COCc1ccco1", -1.35],
  ["CCOC(=O)[C@H](Cc1ccccc1)NC(=O)CCC1CC(OC(=O)NCCc2ccc(F)cc2)CC2(CCCC(COC(=O)NCc3ccccc3)O2)O1 (some centres not stated)", -0.522],
  ["COc1ccc(O[C@H]2C=C[C@@H](c3ccccc3)O[C@@H]2COC(=O)CCC(C)=NOC[C@@H](O)[C@H]2O[C@@H]3OC(C)(C)O[C@@H]3[C@H]2O)cc1", 0.671]
]}

Query block: What does the record list as z-score for `CO[C@H]1COC(=O)CC=C[C@@H](C)[C@H](OC)COC(=O)CCC[C@@H]1C` ?
Result block: -1.47

Query block: // query: Cc1cc2c(nc1C)CCCCN2CC(C)ON=C1[C@H]2CCn3c(=O)n(-c4ccccc4)c(=O)n3[C@H]2[C@H](O)[C@@H]2O[C@H]12 (some centres not stated)
Result block: 0.678

Query block: Now consider CCOC(=O)[C@H](CC(C)C)NC(=O)CCC1CC(OC(=O)NCc2ccc3c(c2)OCO3)CC2(CCCC(COC(=O)NCCCN3CCCC3=O)O2)O1 (some centres not stated) and answer again.
Result block: -0.0618

Query block: What about `C#CCCCON=C1C[C@@H](O)[C@@H](O)[C@@H]2[C@@H]3C(=O)N(C(C)(C)C)C(=O)[C@@H]3CC[C@H]12` ?
Result block: -0.234

Query block: What would you report for `C[C@H]1CC[C@H]2C(=O)O[C@H](COc3ccc(C(C)(C)C)cc3)CN2[C@@H]1c1ccc(Br)cc1` ?
Result block: -0.364

Query block: // next record `CCN1C(=O)[C@H]2[C@H]3[C@H](O)[C@H](O)CC(=O)[C@@H]3CC[C@H]2C1=O`
Result block: 0.0074

Query block: Next molecule up: `COC(=O)CC=C[C@@H](C)[C@@H](C=NOC[C@H]1O[C@H](c2ccccc2)C=C[C@@H]1Oc1ccc(OC)cc1)OC`
Result block: -0.337
